# Test system: 138582-337-R-J1-PDC complex spheroid viability
# test_details: Anticancer human tumor 138582-337-R-J1-PDC patient-derived Merkel cell tumor cell line growth inhibition
# condition_context: curve of first compound; second compound 10 µM
measured_parameter: IC50

1. CC[C@@]1(O)C(=O)OCc2c1cc1n(c2=O)Cc2cc3c(CN(C)C)c(O)ccc3nc2-1 + NC1CC1c1ccc(-c2cccc(O)c2)cc1 | > 100 nM
2. Nc1ncn(C2CC(O)C(CO)O2)c(=O)n1 (centres undefined) + NC1CC1c1ccc(-c2cccc(O)c2)cc1 | > 1000 nM
3. Nc1ncn(C2CC(O)C(CO)O2)c(=O)n1 (centres undefined) + NC1CCC(NC2CC2c2ccccc2)CC1 | > 1000 nM
4. Cn1ncnc1C1c2n[nH]c(=O)c3cc(F)cc(c23)NC1c1ccc(F)cc1 (centres undefined) + NC1CCC(NC2CC2c2ccccc2)CC1 | > 100 nM
5. Nc1ccn(C2OC(CO)C(O)C2(F)F)c(=O)n1 (centres undefined) + NC1CCC(NC2CC2c2ccccc2)CC1 | > 300 nM

Request: May I ask what IC50 has been recorded for COc1cc(C2c3cc4c(cc3C(OC3OC5COC(C)OC5C(O)C3O)C3COC(=O)C23)OCO4)cc(OC)c1O (centres undefined) + NC1CCC(NC2CC2c2ccccc2)CC1 ?
Response: > 3000 nM

Request: Could you share which IC50 value was measured for CCN(c1cc(-c2ccc(CN3CCOCC3)cc2)cc(C(=O)NCc2c(C)cc(C)[nH]c2=O)c1C)C1CCOCC1 + NC1CCC(NC2CC2c2ccccc2)CC1 ?
Response: > 3000 nM

Request: Requested read-out: IC50. Entry: Nc1ccn(C2OC(CO)C(O)C2(F)F)c(=O)n1 (centres undefined) + NC1CC1c1ccc(-c2cccc(O)c2)cc1
Response: > 300 nM

Request: Returns the measured IC50 for the input molecule. Input: CC(C)c1c(-c2ccccc2)nc2c(C#N)c[nH]n2c1=O + NC1CC1c1ccc(-c2cccc(O)c2)cc1
Response: > 10000 nM

---

# Test system: 138582-337-R-J1-PDC complex spheroid viability
# test_details: Anticancer human tumor 138582-337-R-J1-PDC cell line growth inhibition;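 also: spheroids exposed to agents for 7 days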;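 as to viability, T/C: 100% = DMSO vehicle control viability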
# condition_context: second compound 0.1 µM; first compound 0.00316 µM; stronger effect = lower value
measured_parameter: viability, T/C

Guide cases for viability, T/C, answers given:
1. COc1cc(Nc2ncc3c(n2)-c2ccc(Cl)cc2C(c2c(F)cccc2OC)=NC3)ccc1C(=O)O + NC1CCC(NC2CC2c2ccccc2)CC1 | 89.6%
2. Cn1ncnc1C1c2n[nH]c(=O)c3cc(F)cc(c23)NC1c1ccc(F)cc1 (stereo not drawn) + NC1CCC(NC2CC2c2ccccc2)CC1 | 89%

Field: next molecule
Request: Report viability, T/C for CC1COCCN1c1cc(-c2ccnn2C)c2ccnc(-c3ccn[nH]3)c2n1 (stereo not drawn) + NC1CCC(NC2CC2c2ccccc2)CC1 please.
Response: 90.8%

---

# Test system: 138582-337-R-J1-PDC complex spheroid viability
# test_details: Anticancer human tumor 138582-337-R-J1-PDC cell line growth inhibition;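 also: spheroids exposed to agents for 7 days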;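 as to viability, T/C: 100% = DMSO vehicle control viability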
# condition_context: second compound 0.1 µM; first compound 0.316 µM; stronger effect = lower value
Each entry below carries its recorded viability, T/C.
Just the number please, in %, no unit attached.

Recorded results for 3 compounds are shown here.
1. CC(C)c1c(-c2ccccc2)nc2c(C#N)c[nH]n2c1=O + NC1CCC(NC2CC2c2ccccc2)CC1 | 93.8
2. CC1COCCN1c1cc(-c2ccnn2C)c2ccnc(-c3ccn[nH]3)c2n1 (stereo not given) + NC1CCC(NC2CC2c2ccccc2)CC1 | 53.8
3. CC1COCCN1c1cc(C2(S(C)(=N)=O)CC2)nc(-c2ccnc3[nH]ccc23)n1 (stereo not given) + NC1CC1c1ccc(-c2cccc(O)c2)cc1 | 70.3

Request: Requested field: viability, T/C. Item: COc1ccc([C@@H](O)c2cc(-c3ncnc4cc(N5CCOCC5)ccc34)c(F)cc2Cl)nn1 + NC1CCC(NC2CC2c2ccccc2)CC1
Response: 76.5

Request: Given COc1cc(Nc2ncc3c(n2)-c2ccc(Cl)cc2C(c2c(F)cccc2OC)=NC3)ccc1C(=O)O + NC1CC1c1ccc(-c2cccc(O)c2)cc1 , state its recorded viability, T/C.
Response: 51.9

All figures here come from PubChem BioAssay AID1918931.
